Listed below: inhibition values for each entry.
Molecular target: Dual specificity tyrosine-phosphorylation-regulated kinase 2 (Homo sapiens);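 note: values are mean percent inhibition of DYRK2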
Sequence (whole entry): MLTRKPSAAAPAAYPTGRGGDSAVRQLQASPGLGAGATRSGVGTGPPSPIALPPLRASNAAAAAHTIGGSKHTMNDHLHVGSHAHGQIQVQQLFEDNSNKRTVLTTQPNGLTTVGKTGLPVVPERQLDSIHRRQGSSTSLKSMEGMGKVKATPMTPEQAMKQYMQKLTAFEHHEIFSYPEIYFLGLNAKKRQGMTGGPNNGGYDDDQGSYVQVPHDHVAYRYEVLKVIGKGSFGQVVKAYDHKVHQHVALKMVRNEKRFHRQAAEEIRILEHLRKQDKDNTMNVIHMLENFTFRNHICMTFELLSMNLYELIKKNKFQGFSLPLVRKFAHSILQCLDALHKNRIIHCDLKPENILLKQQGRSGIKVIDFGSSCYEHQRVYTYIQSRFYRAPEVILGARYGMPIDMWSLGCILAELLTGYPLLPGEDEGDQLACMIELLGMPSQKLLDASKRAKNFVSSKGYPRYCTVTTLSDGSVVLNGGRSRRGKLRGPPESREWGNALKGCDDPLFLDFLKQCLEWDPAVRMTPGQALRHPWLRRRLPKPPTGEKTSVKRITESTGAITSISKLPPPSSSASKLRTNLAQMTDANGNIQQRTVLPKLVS
Conditions: at 0.1 µM
PROPERTY_LABEL: inhibition (%)

>  <COMPOUND>
NC(=O)Cc1ccccc1Oc1nccc(-c2c(-c3ccc(F)cc3)ncn2C2CCNCC2)n1

>  <PROPERTY_LABEL>
inhibition

>  <OBS_VALUE>
2.28

$$$$
>  <COMPOUND>
O=C1Nc2ccc(I)cc2C1=Cc1cc(Br)c(O)c(Br)c1

>  <PROPERTY_LABEL>
inhibition

>  <OBS_VALUE>
4.72

$$$$
>  <COMPOUND>
CCc1cccc(CC)c1/C=C/c1cncc(C(=O)NC)c1

>  <PROPERTY_LABEL>
inhibition

>  <OBS_VALUE>
2.13

$$$$
>  <COMPOUND>
Clc1ccc(CNc2nccc(-c3cnn4ncccc34)n2)cc1

>  <PROPERTY_LABEL>
inhibition

>  <OBS_VALUE>
0.77

$$$$
>  <COMPOUND>
O=C(Nc1n[nH]c2nc(-c3ccc(O)cc3)c(Br)cc12)C1CC1

>  <PROPERTY_LABEL>
inhibition

>  <OBS_VALUE>
12.4

$$$$
>  <COMPOUND>
CCS(=O)(=O)c1ccc(OC)c(Nc2ncc(-c3cccc(-c4ccccc4F)c3)o2)c1

>  <PROPERTY_LABEL>
inhibition

>  <OBS_VALUE>
1.46

$$$$
>  <COMPOUND>
O=C(NCC1CC1)c1ccc(-c2cccc(C(=O)NC3CC3)c2)cc1

>  <PROPERTY_LABEL>
inhibition

>  <OBS_VALUE>
2.27

$$$$
>  <COMPOUND>
COc1ccc2cc(-c3c(-c4ccncc4)nc(-c4ccc([S+](C)[O-])cc4C)n3C)ccc2c1 (centres undefined)

>  <PROPERTY_LABEL>
inhibition

>  <OBS_VALUE>
-0.45

$$$$
>  <COMPOUND>
c1ccc(-c2n[nH]cc2-c2ccnc(-c3ccc(OCCN4CCOCC4)cc3)c2)nc1

>  <PROPERTY_LABEL>
inhibition

>  <OBS_VALUE>
-0.9

$$$$

Just for reference, ChEMBL document CHEMBL1961873 is where these values come from.
